assay-overview: Inhibition of Src-mediated dentine resorption in rabbit-osteoclast assay
The label is condition met for IC50 below 10 µM and condition not met for IC50 equal to or exceeding 10 µM.

Study these solved cases before continuing.
- N[C@H]1CC[C@H](Nc2nc(Nc3ccc(P(=O)(O)CP(=O)(O)O)cc3)c3ncn(C4CCCC4)c3n2)CC1: condition met
- N[C@H]1CC[C@H](Nc2nc(Nc3ccc(P(=O)(O)O)c(P(=O)(O)O)c3)c3ncn(C4CCCC4)c3n2)CC1: condition not met
- O=P(O)(O)C(O)(CCCNc1nc(Nc2ccccc2)c2ncn(C3CCCC3)c2n1)P(=O)(O)O: condition not met
- O=P(O)(O)CP(=O)(O)CCCNc1nc(Nc2ccccc2)c2ncn(C3CCCC3)c2n1: condition met
- N[C@H]1CC[C@H](Nc2nc(Nc3ccccc3)c3ncn(C4CCCC4)c3n2)CC1: condition met

Now look at this entry.
Exercise: Is 10 µM strictly greater than the compound's reported IC50? compound: N[C@H]1CC[C@H](Nc2nc(Nc3ccc(C(P(=O)(O)O)P(=O)(O)O)cc3)c3ncn(C4CCCC4)c3n2)CC1
Key: condition not met
